Data provenance is paper PMC12282092.

# measurementDescription: Metabolic stability in liver microsomes
# experimentalConditions: in vitro intrinsic clearance in human liver microsomes, n = 1
Measured HLM CLint of individual entries

compound: N#Cc1ncc(N2CCC3(CC2)C(=O)Nc2ccc(Cl)cc23)cc1Cl [Compound 16]
HLM CLint: <7.7 µL/min/mg microsomal protein
//
compound: N#Cc1ncc(N2CCC3(CC2)C(=O)Nc2ccc(F)cc23)cc1Cl [Compound 19]
HLM CLint: 19 µL/min/mg microsomal protein
//
compound: N#Cc1ncc(N2CCC3(CC2)C(=O)Nc2ccccc23)cc1Cl [Compound 20]
HLM CLint: 19.7 µL/min/mg microsomal protein
//
compound: CN1C(=O)C2(CCN(c3cnc(C#N)c(Cl)c3)CC2)c2cc(Br)ccc21 [Compound 22]
HLM CLint: 10.9 µL/min/mg microsomal protein
//
compound: CN1C(=O)C2(CCN(c3ccc(C#N)c(Cl)n3)CC2)c2cc(F)ccc21 [Compound 29]
HLM CLint: 31.9 µL/min/mg microsomal protein
//
compound: Cc1cc(N2CCC3(CC2)C(=O)N(C)c2ccc(F)cc23)cc(F)c1C#N [Compound 32]
HLM CLint: 64.8 µL/min/mg microsomal protein
//
compound: N#Cc1ncc(N2CCC3(CC2)C(=O)N(CC2CC2)c2ccc(F)cc23)cc1Cl [Compound 24]
HLM CLint: 46.3 µL/min/mg microsomal protein
//
compound: COc1cc(N2CCC3(CC2)C(=O)N(C)c2ccc(F)cc23)cnc1C#N [Compound 31]
HLM CLint: 20.5 µL/min/mg microsomal protein
//
compound: N#Cc1ncc(N2CCC3(CC2)C(=O)N(CCF)c2ccc(F)cc23)cc1Cl [Compound 25]
HLM CLint: 14.1 µL/min/mg microsomal protein
//
compound: N#Cc1ncc(N2CCC3(CC2)C(=O)Nc2ccc(Br)cc23)cc1Cl [Compound 1]
HLM CLint: <7.7 µL/min/mg microsomal protein
//
compound: CN1C(=O)C2(CCN(c3ccc(C#N)c(Cl)c3)CC2)c2cc(F)ccc21 [Compound 30]
HLM CLint: 39.1 µL/min/mg microsomal protein
//
compound: Cc1ccc2c(c1)C1(CCN(c3cnc(C#N)c(Cl)c3)CC1)C(=O)N2 [Compound 17]
HLM CLint: 123 µL/min/mg microsomal protein
//
compound: CN1C(=O)C2(CCN(c3cnc(N4CCOCC4)c(Cl)c3)CC2)c2cc(F)ccc21 [Compound 34]
HLM CLint: 126 µL/min/mg microsomal protein
//
compound: CN1C(=O)C2(CCN(c3cnc(C#N)c(Cl)c3)CC2)c2cc(F)ccc21 [Compound 23]
HLM CLint: 19 µL/min/mg microsomal protein
